system: MCF7; test: Cytotoxicity against human MCF7 cells by SRB assay; assay type: functional
GI50 values, listed per item
Report only the number, with the unit nM understood.

# value of GI50, MCF7, item `C=C1[C@@H](O)C[C@@]23CC[C@@H]4[C@@]5(C)CC[C@@H](OC(C)=O)C(C)(C)[C@@H]5C[C@@H](O[C@@H]5O[C@H](COC(C)=O)[C@@H](O)[C@H](O)[C@H]5O)[C@@]4(C)C2=CC[C@H]3[C@H]1C` = 1510

GI50 for MCF7 with input `CC(=O)OC[C@H]1O[C@@H](O[C@@H]2C[C@H]3C(C)(C)[C@H](OC(C)=O)CC[C@]3(C)[C@H]3CC[C@@]45C[C@H](O)C[C@H](C)[C@@H]4CC=C5[C@@]32C)[C@H](O)[C@@H](O)[C@@H]1O` equals 4470

Bench note, MCF7: `CC(=O)OC[C@H]1O[C@@H](O[C@@H]2C[C@H]3C(C)(C)[C@H](OC(C)=O)CC[C@]3(C)[C@H]3CC[C@@H]4[C@]5(CC[C@@]4(C)[C@@]32C)O[C@@H]([C@H](O)C(C)(C)O)C[C@@H]5C)[C@H](O)[C@@H](O)[C@@H]1O` , GI50 reads 1070

Tested on MCF7, the item `COC(C)(C)[C@@H](O)[C@H](O)C[C@H](C)C1=C2CC[C@@H]3[C@@]4(C)CC[C@@H](OC(C)=O)C(C)(C)[C@@H]4C[C@@H](O[C@@H]4O[C@H](COC(C)=O)[C@@H](O)[C@H](O)[C@H]4O)[C@@]3(C)[C@]2(C)CC1` showed GI50 equal to 2630

Entry `COC(C)(C)[C@@H](O)[C@H]1C[C@H](C)[C@@]2(CC[C@]3(C)[C@@H]2CC[C@@H]2[C@@]4(C)CC[C@@H](OC(C)=O)C(C)(C)[C@@H]4C[C@@H](O[C@@H]4O[C@H](COC(C)=O)[C@@H](O)[C@H](O)[C@H]4O)[C@]23C)O1` : GI50 on MCF7 = 2140

Record `C=C(C)[C@@H](O)[C@H](O)C[C@H](C)[C@@H]1CC[C@]2(C)C1=CC[C@@H]1[C@@]3(C)CC[C@@H](OC(C)=O)C(C)(C)[C@@H]3C[C@@H](O[C@@H]3O[C@H](COC(C)=O)[C@@H](O)[C@H](O)[C@H]3O)[C@]12C` ; system MCF7; GI50 = 2750

Next:
GI50 value, target or system MCF7, for `CC(=O)OC[C@H]1O[C@@H](O[C@@H]2C[C@H]3C(C)(C)[C@H](OC(C)=O)CC[C@]3(C)[C@H]3CCC4=C([C@@H](C)C[C@@H](O)[C@H](O)C(C)(C)O)CC[C@@]4(C)[C@@]32C)[C@H](O)[C@@H](O)[C@@H]1O` : 2880

###

test: Cytotoxicity against human HL60(TB) cells by SRB assay; type: functional, HL-60(TB); details: HL-60
Outcome Measure: GI50 (µM)
Please reply with the bare figure in µM and do not write the unit itself.

Lookup result for `CC(=O)OC[C@H]1O[C@@H](O[C@@H]2C[C@H]3C(C)(C)[C@H](OC(C)=O)CC[C@]3(C)[C@H]3CCC4=C([C@@H](C)C[C@@H](O)[C@H](O)C(C)(C)O)CC[C@@]4(C)[C@@]32C)[C@H](O)[C@@H](O)[C@@H]1O` ; measured GI50: 12.9

Summary for this molecule, `C=C1[C@@H](O)C[C@@]23CC[C@@H]4[C@@]5(C)CC[C@@H](OC(C)=O)C(C)(C)[C@@H]5C[C@@H](O[C@@H]5O[C@H](COC(C)=O)[C@@H](O)[C@H](O)[C@H]5O)[C@@]4(C)C2=CC[C@H]3[C@H]1C` : GI50 is 2.75

Input `C=C(C)[C@@H](O)[C@H](O)C[C@H](C)[C@@H]1CC[C@]2(C)C1=CC[C@@H]1[C@@]3(C)CC[C@@H](OC(C)=O)C(C)(C)[C@@H]3C[C@@H](O[C@@H]3O[C@H](COC(C)=O)[C@@H](O)[C@H](O)[C@H]3O)[C@]12C` . Output GI50: 2.09

Proceeding to the next molecule to report its GI50.
Notebook: `COC(C)(C)[C@@H](O)[C@H]1C[C@H](C)[C@@]2(CC[C@]3(C)[C@@H]2CC[C@@H]2[C@@]4(C)CC[C@@H](OC(C)=O)C(C)(C)[C@@H]4C[C@@H](O[C@@H]4O[C@H](COC(C)=O)[C@@H](O)[C@H](O)[C@H]4O)[C@]23C)O1` , GI50 read as 2.34

###

test system: HCT-116; test: Cytotoxicity against human HCT116 cells by SRB assay; format: functional
API: label(entry) gives 1 if the entry's GI50 is strictly smaller than 3 µM; on equality or larger values it gives -1.

Worked examples follow.
Hello, is GI50 of the following molecule strictly smaller than 3 µM? `C=C(C)[C@@H](O)[C@H](O)C[C@H](C)[C@@H]1CC[C@]2(C)C1=CC[C@@H]1[C@@]3(C)CC[C@@H](OC(C)=O)C(C)(C)[C@@H]3C[C@@H](O[C@@H]3O[C@H](COC(C)=O)[C@@H](O)[C@H](O)[C@H]3O)[C@]12C`
1

Report whether reported GI50 is lower than 3 µM (strictly) for `C=C1[C@@H](O)C[C@@]23CC[C@@H]4[C@@]5(C)CC[C@@H](OC(C)=O)C(C)(C)[C@@H]5C[C@@H](O[C@@H]5O[C@H](COC(C)=O)[C@@H](O)[C@H](O)[C@H]5O)[C@@]4(C)C2=CC[C@H]3[C@H]1C`
-1

Consider `CC(=O)OC[C@H]1O[C@@H](O[C@@H]2C[C@H]3C(C)(C)[C@H](OC(C)=O)CC[C@]3(C)[C@H]3CC[C@@]45C[C@H](O)C[C@H](C)[C@@H]4CC=C5[C@@]32C)[C@H](O)[C@@H](O)[C@@H]1O` . Does its GI50 lie strictly below 3 µM?
1

Threshold test, GI50 < 3 µM: `COC(C)(C)[C@@H](O)[C@H]1C[C@H](C)[C@@]2(CC[C@]3(C)[C@@H]2CC[C@@H]2[C@@]4(C)CC[C@@H](OC(C)=O)C(C)(C)[C@@H]4C[C@@H](O[C@@H]4O[C@H](COC(C)=O)[C@@H](O)[C@H](O)[C@H]4O)[C@]23C)O1`
1

Does the reported GI50 of `COC(C)(C)[C@@H](O)[C@H](O)C[C@H](C)C1=C2CC[C@@H]3[C@@]4(C)CC[C@@H](OC(C)=O)C(C)(C)[C@@H]4C[C@@H](O[C@@H]4O[C@H](COC(C)=O)[C@@H](O)[C@H](O)[C@H]4O)[C@@]3(C)[C@]2(C)CC1` stay below 3 µM?
-1

Is it true that GI50 reported for `CC(=O)OC[C@H]1O[C@@H](O[C@@H]2C[C@H]3C(C)(C)[C@H](OC(C)=O)CC[C@]3(C)[C@H]3CC[C@@H]4[C@]5(CC[C@@]4(C)[C@@]32C)O[C@@H]([C@H](O)C(C)(C)O)C[C@@H]5C)[C@H](O)[C@@H](O)[C@@H]1O` is less than 3 µM?
-1

Attention now turns to another entry.
Strictly below 3 µM: is that where GI50 of `CC(=O)OC[C@H]1O[C@@H](O[C@@H]2C[C@H]3C(C)(C)[C@H](OC(C)=O)CC[C@]3(C)[C@H]3CCC4=C([C@@H](C)C[C@@H](O)[C@H](O)C(C)(C)O)CC[C@@]4(C)[C@@]32C)[C@H](O)[C@@H](O)[C@@H]1O` sits?
-1

###

tested on: NCI-H226; assay: Cytotoxicity against human NCI-H226 cells by SRB assay; type: functional
Cut-off 5 µM on GI50: below means Y, at or above means N.

Previously resolved entries follow.
GI50 strictly < 5 µM for this molecule? `CC(=O)OC[C@H]1O[C@@H](O[C@@H]2C[C@H]3C(C)(C)[C@H](OC(C)=O)CC[C@]3(C)[C@H]3CCC4=C([C@@H](C)C[C@@H](O)[C@H](O)C(C)(C)O)CC[C@@]4(C)[C@@]32C)[C@H](O)[C@@H](O)[C@@H]1O`
N

Given `COC(C)(C)[C@@H](O)[C@H](O)C[C@H](C)C1=C2CC[C@@H]3[C@@]4(C)CC[C@@H](OC(C)=O)C(C)(C)[C@@H]4C[C@@H](O[C@@H]4O[C@H](COC(C)=O)[C@@H](O)[C@H](O)[C@H]4O)[C@@]3(C)[C@]2(C)CC1` , is recorded GI50 strictly lower than 5 µM?
N

is_below(GI50, 5 µM) for `CC(=O)OC[C@H]1O[C@@H](O[C@@H]2C[C@H]3C(C)(C)[C@H](OC(C)=O)CC[C@]3(C)[C@H]3CC[C@@H]4[C@]5(CC[C@@]4(C)[C@@]32C)O[C@@H]([C@H](O)C(C)(C)O)C[C@@H]5C)[C@H](O)[C@@H](O)[C@@H]1O` ?
N

Next:
Hi there! Is GI50 for `C=C1[C@@H](O)C[C@@]23CC[C@@H]4[C@@]5(C)CC[C@@H](OC(C)=O)C(C)(C)[C@@H]5C[C@@H](O[C@@H]5O[C@H](COC(C)=O)[C@@H](O)[C@H](O)[C@H]5O)[C@@]4(C)C2=CC[C@H]3[C@H]1C` below 5 µM, do you know?
N

Item `COC(C)(C)[C@@H](O)[C@H]1C[C@H](C)[C@@]2(CC[C@]3(C)[C@@H]2CC[C@@H]2[C@@]4(C)CC[C@@H](OC(C)=O)C(C)(C)[C@@H]4C[C@@H](O[C@@H]4O[C@H](COC(C)=O)[C@@H](O)[C@H](O)[C@H]4O)[C@]23C)O1` : GI50 beneath 5 µM, strictly?
Y

Does this molecule meet the criterion GI50 < 5 µM? `C=C(C)[C@@H](O)[C@H](O)C[C@H](C)[C@@H]1CC[C@]2(C)C1=CC[C@@H]1[C@@]3(C)CC[C@@H](OC(C)=O)C(C)(C)[C@@H]3C[C@@H](O[C@@H]3O[C@H](COC(C)=O)[C@@H](O)[C@H](O)[C@H]3O)[C@]12C`
Y
